- Test system: C. albicans 10231
- Procedure summary: Activity test: preservative challenge test in emulsion, C. albicans 10231
- Format: cell-based
- Measurement context: 0.5% preservative in emulsion; 7 days
- Description: The emulsion was prepared by separately mixing components in phase A and phase B at 75-80° C. for 15 minutes. The phases were then combined and mixed for another 10 minutes and cooled to 45° C. with stirring. Preservative was then added followed by citric acid to adjust pH to from abut 6.5 to 7.5. […] After incubation, readings of the number of colonies per milliliter (cfu/ml) were made results were determined, as reported in associated Tables IA-VA. […]
Consider the following compounds and their measured number of colonies per milliliter, 7 days readings.

Previously resolved entries follow.
- Compound: "C#CCOC(=O)c1ccc(O)c(O)c1 [Propargyl 3,4-Dihydroxybenzoate]"
  Test value: "< 10 cfu/ml"
- Compound: "CC=CC=CCOC(=O)c1ccc(O)cc1O [2,4-Hexadienyl-2,4-dihydroxybenzoate, 2,4-Hexadienyl-2,4-Dihydroxybenzoate]"
  Test value: "< 10 cfu/ml"
- Compound: "C#CCOC(=O)c1ccc(O)c(Cl)c1 [Propargyl 3-Chloro-4-Hydroxybenzoate]"
  Test value: "370 cfu/ml"

compound CC=CC=CCOC(=O)c1ccc(O)cc1 [2,4-Hexadienyl-4-Hydroxybenzoate] , number of colonies per milliliter, 7 days observed: < 10 cfu/ml

###

- Test system: A. niger 16404
- Procedure summary: Activity test: preservative challenge test in emulsion, A. niger 16404
- Type: cell-based
- Measurement context: 0.5% preservative in emulsion; 7 days
Consider the following compounds and their measured number of colonies per milliliter, 7 days readings.

Previously resolved entries follow.
- Compound: "C#CCOC(=O)c1ccc(O)c(Cl)c1 [Propargyl 3-Chloro-4-Hydroxybenzoate]"
  Test value: "< 10 cfu/ml"
- Compound: "C#CCOC(=O)c1ccc(O)c(O)c1 [Propargyl 3,4-Dihydroxybenzoate]"
  Test value: "< 10 cfu/ml"
- Compound: "CC=CC=CCOC(=O)c1ccc(O)cc1 [2,4-Hexadienyl-4-Hydroxybenzoate]"
  Test value: "< 10 cfu/ml"

Continue with the compound presented below.
compound CC=CC=CCOC(=O)c1ccc(O)cc1O [2,4-Hexadienyl-2,4-dihydroxybenzoate, 2,4-Hexadienyl-2,4-Dihydroxybenzoate] , number of colonies per milliliter, 7 days observed: 30 cfu/ml

###

- Test system: E. coli 8739
- Procedure summary: Activity test: preservative challenge test in emulsion, E. coli 8739
- Type: cell-based
- Measurement context: 0.5% preservative in emulsion; 14 days
Quantity name: number of colonies per milliliter, 14 days

- Molecule: "CC=CC=CCOC(=O)c1ccc(O)cc1 [2,4-Hexadienyl-4-Hydroxybenzoate]"
  Test value: "< 10 cfu/ml"
- Molecule: "CC=CC=CCOC(=O)c1ccc(O)cc1O [2,4-Hexadienyl-2,4-dihydroxybenzoate, 2,4-Hexadienyl-2,4-Dihydroxybenzoate]"
  Test value: "< 10 cfu/ml"
- Molecule: "C#CCOC(=O)c1ccc(O)c(Cl)c1 [Propargyl 3-Chloro-4-Hydroxybenzoate]"
  Test value: "< 10 cfu/ml"

Continue with the molecule presented below.
molecule C#CCOC(=O)c1ccc(O)c(O)c1 [Propargyl 3,4-Dihydroxybenzoate] , number of colonies per milliliter, 14 days observed: < 10 cfu/ml

###

- Test system: E. coli 8739
- Procedure summary: Activity test: preservative challenge test in emulsion, E. coli 8739
- Type: cell-based
- Measurement context: 0.5% preservative in emulsion; 48 hr
Quantity name: number of colonies per milliliter, 48 hr

- Compound: "CC=CC=CCOC(=O)c1ccc(O)cc1O [2,4-Hexadienyl-2,4-dihydroxybenzoate, 2,4-Hexadienyl-2,4-Dihydroxybenzoate]"
  Quantity name: "number of colonies per milliliter, 48 hr"
  Test value: "< 10 cfu/ml"
- Compound: "C#CCOC(=O)c1ccc(O)c(O)c1 [Propargyl 3,4-Dihydroxybenzoate]"
  Quantity name: "number of colonies per milliliter, 48 hr"
  Test value: "< 10 cfu/ml"
- Compound: "C#CCOC(=O)c1ccc(O)c(Cl)c1 [Propargyl 3-Chloro-4-Hydroxybenzoate]"
  Quantity name: "number of colonies per milliliter, 48 hr"
  Test value: "30 cfu/ml"

compound CC=CC=CCOC(=O)c1ccc(O)cc1 [2,4-Hexadienyl-4-Hydroxybenzoate] , number of colonies per milliliter, 48 hr observed: < 10 cfu/ml

Reference for the values: patent US6316500A
